Provenance of the data: ChEMBL document CHEMBL3885881

Species on record: Rattus norvegicus
assay.remarks: DrugMatrix - Regimen: Daily Repeat
Format: toxicity, organism-based, Sprague-Dawley
Design: regimen Daily Repeat, gender Male, age 6-8 weeks
run.conditions: in vivo, po, 0 mg/kg, 120 h, tissue Blood, route oral GAVAGE, dose level Control, time 5 day, vehicle 100 % WATER
Below is a list of entries, each paired with its recorded MEAN CORPUSCULAR HEMOGLOBIN CONCENTRATION value.
Give your result in G/DL as a bare value.

{"molecule": "NC12CC3CC(CC(C3)C1)C2 [AMANTADINE]", "unit.tag": "G/DL", "value": 39.3}
{"molecule": "CCCC(C)C1(CC)C(=O)NC(=O)NC1=O (stereo unspecified) [PENTOBARBITAL]", "unit.tag": "G/DL", "value": 39.33}

Prompt: Which measured MEAN CORPUSCULAR HEMOGLOBIN CONCENTRATION value corresponds to NC(=O)c1cccnc1 [NIACINAMIDE] ?
Response: 37.35

Prompt: Same for C#Cc1cccc(Nc2ncnc3cc(OCCOC)c(OCCOC)cc23)c1 [ERLOTINIB]
Response: 30.38

Prompt: Same for CCN(CC)CCOC(=O)C1(C2CCCCC2)CCCCC1 [DICYCLOMINE]
Response: 39.44
